# Tested on: WiDr
# Test summary: In vitro cytotoxicity against human tumor WiDr cell line was measured as concentration to reduce [3H]thymidine uptake to 50% of that of the controls
# Format: functional, cell-based
Readout type: pIC50
The value called pIC50 is obtained by taking minus log10 of the concentration in mol/L.

pIC50 for COc1cc2c(cc1OCCCOc1cc3c(cc1OC)C(=O)N1CCC[C@H]1C=N3)N=C[C@@H]1CCCN1C2=O ?
8.00

Another: COc1cc2c(cc1OCCCCCC(=O)N1C[C@H](CCl)c3c1cc(O)c1ccccc31)N=CC1CCCN1C2=O (single isomer, unassigned)
9.55

Another: COc1cc2c(cc1OCCCCCC(=O)N1C[C@@H](CCl)c3c1cc(O)c1ccccc31)N=C[C@@H]1CCCN1C2=O
11.41

Another: COc1cc2c(cc1OCCCC(=O)N1C[C@@H](CCl)c3c1cc(O)c1ccccc31)N=C[C@@H]1CCCN1C2=O
10.85

---

# System: Panel (Carcinoma cell lines)
# Test summary: In vitro drug concentration required for 50% inhibition of 60 different human cancer cell lines compared to controls
# Type: functional
Readout type: GI50 (nM)
State the answer as a number, implicitly in nM.

Molecule	GI50 [nM]
COc1cc2c(cc1OCCCCC(=O)N1C[C@H](CCl)c3c1cc(O)c1ccccc31)N=CC1CCCN1C2=O (single isomer, unassigned)	130

GI50 for COc1cc2c(cc1OCCCCC(=O)N1C[C@@H](CCl)c3c1cc(O)c1ccccc31)N=C[C@@H]1CCCN1C2=O ?
79

Another: COc1cc2c(cc1OCC(=O)N1C[C@H](CCl)c3c1cc(O)c1ccccc31)N=CC1CCCN1C2=O (single isomer, unassigned)
91

Another: COc1cc2c(cc1OCCC(=O)N1C[C@H](CCl)c3c1cc(O)c1ccccc31)N=CC1CCCN1C2=O (single isomer, unassigned)
3200

---

# Test system: Nucleic Acid
# Test summary: Tested for its ability to cross-link linearized plasmid DNA pcDNA3 following 18 hr of exposure at 37 degree celsius
# Assay type: functional
Listing: C50 of selected compounds
State the answer as a number, implicitly in µM.

C50 for COc1cc2c(cc1OCCCCCC(=O)N1C[C@@H](CCl)c3c1cc(O)c1ccccc31)N=C[C@@H]1CCCN1C2=O ?
0.022

Another: COc1cc2c(cc1OCCCC(=O)N1C[C@@H](CCl)c3c1cc(O)c1ccccc31)N=C[C@@H]1CCCN1C2=O
0.017

Another: COc1cc2c(cc1OCC(=O)N1C[C@H](CCl)c3c1cc(O)c1ccccc31)N=CC1CCCN1C2=O (single isomer, unassigned)
1.21

Another: COc1cc2c(cc1OCCCCCC(=O)N1C[C@H](CCl)c3c1cc(O)c1ccccc31)N=CC1CCCN1C2=O (single isomer, unassigned)
0.13

Another: COc1cc2c(cc1OCCC(=O)N1C[C@H](CCl)c3c1cc(O)c1ccccc31)N=CC1CCCN1C2=O (single isomer, unassigned)
7.9

---

Listing: pIC50 of selected compounds
# System: UV4
# Test summary: In vitro cellular toxicity against chinese hamster UV4 cell line after 4 hr of compound exposure
# Format: functional, cell-based
# Run conditions: Cricetulus griseus, UV4, 4 h
The value called pIC50 is obtained by taking minus log10 of the concentration in mol/L.

See these solved cases before continuing.
Compound	Assay target	Numeric value
COc1cc2c(cc1OCCCCCC(=O)N1CC(C)c3c1cc(O)c1ccccc31)N=C[C@@H]1CCCN1C2=O (stereo partly specified)	UV4	5.60
COc1cc2c(cc1OCCC(=O)N1C[C@H](CCl)c3c1cc(O)c1ccccc31)N=CC1CCCN1C2=O (single isomer, unassigned)	UV4	6.07
COc1cc2c(cc1OCCCCC(=O)N1C[C@@H](CCl)c3c1cc(O)c1ccccc31)N=C[C@@H]1CCCN1C2=O	UV4	8.23
COc1cc2c(cc1OCCCCCC(=O)N1C[C@@H](CCl)c3c1cc(O)c1ccccc31)N=C[C@@H]1CCCN1C2=O	UV4	10.64
COc1cc2c(cc1OCCCC(=O)N1C[C@H](CCl)c3c1cc(O)c1ccccc31)N=CC1CCCN1C2=O (single isomer, unassigned)	UV4	9.08
CC(=O)N1C[C@@H](CCl)c2c1cc(O)c1ccccc21	UV4	7.23

pIC50 for COc1cc2c(cc1O)N=C[C@@H]1CCCN1C2=O ?
5.82

Another: COc1cc2c(cc1OCCCOc1cc3c(cc1OC)C(=O)N1CCC[C@H]1C=N3)N=C[C@@H]1CCCN1C2=O
7.07

Another: COc1cc2c(cc1OCCCC(=O)N1C[C@@H](CCl)c3c1cc(O)c1ccccc31)N=C[C@@H]1CCCN1C2=O
10.13

Another: COc1cc2c(cc1OCCCCCC(=O)N1C[C@H](CCl)c3c1cc(O)c1ccccc31)N=CC1CCCN1C2=O (single isomer, unassigned)
8.82

Another: COc1cc2cc(C(=O)N3C[C@@H](CCl)c4c3cc(O)c3ccccc43)[nH]c2c(OC)c1OC
10.05

---

# Tested on: Nucleic Acid
# Test summary: Tested for its ability to cross-link linearized plasmid DNA pcDNA3 following 18 hr of exposure at 37 degree celsius
# Format: functional
Readout type: C50 (µM)
State the answer as a number, implicitly in µM.

See these solved cases before continuing.
Molecule	Measure unit	C50
COc1cc2c(cc1OCCC(=O)N1C[C@@H](CCl)c3c1cc(O)c1ccccc31)N=C[C@@H]1CCCN1C2=O	µM	5
COc1cc2c(cc1OCCCC(=O)N1C[C@H](CCl)c3c1cc(O)c1ccccc31)N=CC1CCCN1C2=O (single isomer, unassigned)	µM	0.025
COc1cc2c(cc1OCCCOc1cc3c(cc1OC)C(=O)N1CCC[C@H]1C=N3)N=C[C@@H]1CCCN1C2=O [DSB-120]	µM	0.029
COc1cc2c(cc1OCCCCC(=O)N1C[C@@H](CCl)c3c1cc(O)c1ccccc31)N=C[C@@H]1CCCN1C2=O	µM	0.56

Kindly consider the entry below.
C50 for COc1cc2c(cc1OCCCCC(=O)N1C[C@H](CCl)c3c1cc(O)c1ccccc31)N=CC1CCCN1C2=O (single isomer, unassigned) ?
1.05

---

# Tested on: UV4
# Test summary: In vitro cellular toxicity against chinese hamster UV4 cell line after 4 hr of compound exposure
# Assay type: functional, cell-based
# Run conditions: Cricetulus griseus, UV4, 4 h
Readout type: pIC50
The value called pIC50 is obtained by taking minus log10 of the concentration in mol/L.

Compound	pIC50
COc1cc2c(cc1OCCCCCC(=O)N1C[C@@H](CCl)c3c1cc(O)c1ccccc31)NC(=O)[C@@H]1CCCN1C2=O	7.89

pIC50 for COc1cc2c(cc1OCCC(=O)N1C[C@@H](CCl)c3c1cc(O)c1ccccc31)N=C[C@@H]1CCCN1C2=O ?
6.80

Another: COc1cc2c(cc1OCCCCC(=O)N1C[C@H](CCl)c3c1cc(O)c1ccccc31)N=CC1CCCN1C2=O (single isomer, unassigned)
7.85

Another: CC(=O)N1C[C@H](CCl)c2c1cc(O)c1ccccc21
5.74

Another: COc1cc2c(cc1OCC(=O)N1C[C@H](CCl)c3c1cc(O)c1ccccc31)N=CC1CCCN1C2=O (single isomer, unassigned)
8.21

Reference source: ChEMBL document CHEMBL1144992
